protocolDescription: Plasma stability assay, dog plasma
Type: in vitro ADME
protocolConditions: 2 μM, 37° C., 120 min (head)
valueKind: % remaining at time point (%)

* C=C1CC[C@@]2(O)C3Cc4ccc(OC(=O)CCCCCCC/C=C/CCCCCCCC)c5c4[C@@]2(CCN3CC2CC2)[C@H]1O5 | 80.6
* CCCCCCCCCCCC(=O)OCN1C(=O)CCc2ccc(OCCCCN3CCN(c4cccc(Cl)c4Cl)CC3)cc21 [Aripiprazole Lauroxil, reference compound] | 81.3
* C=C1CC[C@@]2(O)C3Cc4ccc(OC(=O)OCCCCCCCCCCCC)c5c4[C@@]2(CCN3CC2CC2)[C@H]1O5 | 96.9
* C=C1CC[C@@]2(O)C3Cc4ccc(OCOC(=O)OCCCCCCCCCCCC)c5c4[C@@]2(CCN3CC2CC2)[C@H]1O5 | 104.5
* CCCCCCCCCCCCCCCC(=O)OC1CCCn2c1nc(C)c(CCN1CCC(c3noc4cc(F)ccc34)CC1)c2=O (centres unmarked) [Paliperidone palmitate, reference compound] | 88.4
